// % Test Compound after 24 h [F(t = 24 h) × 100/F(t = 0 h)] lookup, one value per entry
- assayDetails: Stability in buffer at pH 7.4 (HPLC)
- Assay type: physicochemical
- protocolConditions: buffer pH 7.4, 37° C.
Where a name gives a salt, the structure may show the parent alone.
// note: answer is a bare numeric in %

Which % Test Compound after 24 h [F(t = 24 h) × 100/F(t = 0 h)] is reported for this molecule? C[C@@H](C(=O)Nc1ccc(-c2ccc3nc(N(C(=O)OCOC(=O)[C@@H](N)C(C)(C)C)c4ccc(C(=O)N5CC(F)C5)cc4OCC(F)(F)F)nn3c2)cc1)c1ccc(F)cc1.Cl [Example 6.3]
0.0

Can you look up the measured % Test Compound after 24 h [F(t = 24 h) × 100/F(t = 0 h)] of CC[C@H](C)[C@H](N)C(=O)OC(C)OC(=O)N(c1nc2ccc(-c3ccc(NC(=O)[C@H](C)c4ccc(F)cc4)cc3)cn2n1)c1ccc(S(C)(=O)=O)cc1OC.Cl (single isomer, unassigned) [Example 3.7] for me?
0.0

Please report the recorded % Test Compound after 24 h [F(t = 24 h) × 100/F(t = 0 h)] for COc1cc(S(C)(=O)=O)ccc1N(C(=O)OC(C)OC(=O)[C@@H](N)C(C)(C)C)c1nc2ccc(-c3ccc(NC(=O)[C@H](C)c4ccc(F)cc4)cc3)cn2n1.Cl (single isomer, unassigned) [Example 3.4] .
0.0

Recorded % Test Compound after 24 h [F(t = 24 h) × 100/F(t = 0 h)] of COc1cc(S(C)(=O)=O)ccc1N(C(=O)OC(C)OC(=O)[C@@H](N)C(C)(C)C)c1nc2ccc(-c3ccc(NC(=O)[C@H](C)c4ccc(F)cc4)cc3)cn2n1.Cl (mixture of isomers) [Example 3.2] , please.
0.0

Next:
Give its % Test Compound after 24 h [F(t = 24 h) × 100/F(t = 0 h)] value. Item: CNCCCC(=O)N(c1nc2ccc(-c3ccc(NC(=O)[C@H](C)c4ccc(F)cc4)cc3)cn2n1)c1ccc(S(C)(=O)=O)cc1OC.O=C(O)C(F)(F)F [Example 4.1]
23

Endpoint output: % Test Compound after 24 h [F(t = 24 h) × 100/F(t = 0 h)] of COc1cc(S(C)(=O)=O)ccc1N(C(=O)OCOC(=O)[C@@H](N)C(C)C)c1nc2ccc(-c3ccc(NC(=O)[C@H](C)c4ccc(F)cc4)cc3)cn2n1 [Example 1.2, hydrochloride] . Value?
0.0

Fill blank: measured % Test Compound after 24 h [F(t = 24 h) × 100/F(t = 0 h)] of the molecule COc1cc(S(C)(=O)=O)ccc1N(C(=O)OC(C)OC(=O)[C@@H](NC(=O)[C@@H](N)CCCCN)C(C)C)c1nc2ccc(-c3ccc(NC(=O)[C@H](C)c4ccc(F)cc4)cc3)cn2n1.Cl.Cl (mixture of isomers) [Example 2.2] is ____.
0.0

What % Test Compound after 24 h [F(t = 24 h) × 100/F(t = 0 h)] value was documented for this molecule, COc1cc(S(C)(=O)=O)ccc1N(C(=O)OCOC(=O)[C@@H](NC(=O)[C@@H](N)C(C)C)C(C)C)c1nc2ccc(-c3ccc(NC(=O)[C@H](C)c4ccc(F)cc4)cc3)cn2n1 [Example 2.3, hydrochloride] ?
16

Using the record for COc1cc(S(C)(=O)=O)ccc1N(C(=O)OC(C)OC(=O)[C@@H](N)C(C)(C)C)c1nc2ccc(-c3ccc(NC(=O)[C@H](C)c4ccc(F)cc4)cc3)cn2n1.Cl (single isomer, unassigned) [Example 3.3] , report its % Test Compound after 24 h [F(t = 24 h) × 100/F(t = 0 h)].
0.0
